target: SdiA (Salmonella enterica subsp. enterica serovar Typhimurium); assay: Competition dose–response of OOHL (2) against antagonists in the S. Typhimurium SdiA reporter; type: cell-based; settings: no antagonist (0)
Sequence (O66040 entry or part of it): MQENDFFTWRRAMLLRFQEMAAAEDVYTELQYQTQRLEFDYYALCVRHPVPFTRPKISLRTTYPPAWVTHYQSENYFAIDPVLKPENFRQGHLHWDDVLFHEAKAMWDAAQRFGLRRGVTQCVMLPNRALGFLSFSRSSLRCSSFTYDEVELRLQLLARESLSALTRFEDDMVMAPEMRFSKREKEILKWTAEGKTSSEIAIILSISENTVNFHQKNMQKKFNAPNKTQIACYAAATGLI
observable: EC50 (nM)

[[record]]
compound = "CCCCCC(=O)CC(=O)N[C@H]1CCOC1=O [compound 2, reference compound]"
measurement_units = "nM"
result = 1.03


====

molecular target: SdiA (Salmonella enterica subsp. enterica serovar Typhimurium); experiment: S. Typhimurium-pJNS25 SdiA reporter, agonism (luminescence); format: cell-based; conditions: maximal activation of the antagonists (partial agonism), Table 3; read-out: activation (%)
# Emax annotations
observable: Emax

[[record]]
compound = "O=C(Cc1ccc(-c2ccccc2)cc1)N[C@H]1CCSC1=O"
experimental_target = "SdiA (Salmonella enterica subsp. enterica serovar Typhimurium)"
observable = "Emax"
result = "59%"

[[record]]
compound = "O=C(Oc1c(Br)cc(Br)cc1CNC(=O)c1ccccc1[N+](=O)[O-])c1ccccc1Cl [19R, reference compound]"
experimental_target = "SdiA (Salmonella enterica subsp. enterica serovar Typhimurium)"
observable = "Emax"
result = "40%"

[[record]]
compound = "CCOC(=O)CNC(=O)Cc1cccc(I)c1"
experimental_target = "SdiA (Salmonella enterica subsp. enterica serovar Typhimurium)"
observable = "Emax"
result = "26%"

[[record]]
compound = "O=C(Cc1ccc(-c2ccccc2)cc1)N[C@H]1CCOC1=O"
experimental_target = "SdiA (Salmonella enterica subsp. enterica serovar Typhimurium)"
observable = "Emax"
result = "48%"

[[record]]
compound = "CCCCCCCCCCCCOc1ccc(C(=O)N[C@H]2CCOC2=O)cc1"
experimental_target = "SdiA (Salmonella enterica subsp. enterica serovar Typhimurium)"
observable = "Emax"
result = "6%"


Source: paper PMC6204753
